- EXPERIMENT NOTES: acute oral toxicity, mouse
- EXPERIMENTAL CONTEXT: in vivo, mouse p.o.
Item-by-item account of LD50

C#CCN(C)Cc1ccccc1: 700 mg/kg

Okay, next one:
Suppose we examine the compound C#CCN(C)Cc1ccccc1Cl ; what LD50 value has been reported?
305 mg/kg
